The measured values listed here are drawn from ChEMBL document CHEMBL2311315.

# Tested on: Cortex
# protocolSummary: Biodistribution in Sprague-Dawley rat brain cortex at 0.3 to 0.8 nmol, iv after 40 mins by gamma counting analysis
# Type: ADME, organism-based
# appliedConditions: in vivo
SUV listing for selected compounds.

Observe how each entry below is paired with its result.
testsmiles=O=[11C](NC1CCC1)Oc1ccc(O)c(-c2ccccc2)c1 targetundertest=Cortex property=SUV assayresult=3.37
testsmiles=O=[11C](NC1CCCCC1)Oc1ccc(O)c(-c2ccccc2)c1 targetundertest=Cortex property=SUV assayresult=2.49
testsmiles=CCCCCCN[11C](=O)Oc1ccc(O)c(-c2ccccc2)c1 targetundertest=Cortex property=SUV assayresult=2.49
testsmiles=O=[11C](NC1CCCC1)Oc1ccc(O)c(-c2ccccc2)c1 targetundertest=Cortex property=SUV assayresult=3.09

Next:
**Q:** Entry under review: `NC(=O)c1cccc(-c2cccc(O[11C](=O)NC3CCCCC3)c2)c1` . Reported SUV?
**A:** 0.94

* * *

# Test system: Cortex
# protocolSummary: Biodistribution in URB597-pretreated Sprague-Dawley rat brain cortex at 0.3 to 0.8 nmol, iv administered 30 mins after URB597-treatment measured after 40 mins by gamma counting analysis
# Format: ADME, organism-based
# appliedConditions: in vivo
# SUV >= 0.3 gives True, anything below gives False

Below are worked cases with known answers.
testsmiles=O=[11C](NC1CCCCC1)Oc1ccc(O)c(-c2ccccc2)c1 labelvalue=True
testsmiles=CCCCCCN[11C](=O)Oc1ccc(O)c(-c2ccccc2)c1 labelvalue=False
testsmiles=O=[11C](NC1CCC1)Oc1ccc(O)c(-c2ccccc2)c1 labelvalue=False
testsmiles=NC(=O)c1cccc(-c2cccc(O[11C](=O)NC3CCCCC3)c2)c1 labelvalue=False

**Q:** Hi, just wondering whether `O=[11C](NC1CCCC1)Oc1ccc(O)c(-c2ccccc2)c1` shows SUV of 0.3 or higher.
**A:** True

* * *

# targetUnderTest: Fatty-acid amide hydrolase 1 (Rattus norvegicus) (UniProt P97612)
# Sequence (P97612 whole entry): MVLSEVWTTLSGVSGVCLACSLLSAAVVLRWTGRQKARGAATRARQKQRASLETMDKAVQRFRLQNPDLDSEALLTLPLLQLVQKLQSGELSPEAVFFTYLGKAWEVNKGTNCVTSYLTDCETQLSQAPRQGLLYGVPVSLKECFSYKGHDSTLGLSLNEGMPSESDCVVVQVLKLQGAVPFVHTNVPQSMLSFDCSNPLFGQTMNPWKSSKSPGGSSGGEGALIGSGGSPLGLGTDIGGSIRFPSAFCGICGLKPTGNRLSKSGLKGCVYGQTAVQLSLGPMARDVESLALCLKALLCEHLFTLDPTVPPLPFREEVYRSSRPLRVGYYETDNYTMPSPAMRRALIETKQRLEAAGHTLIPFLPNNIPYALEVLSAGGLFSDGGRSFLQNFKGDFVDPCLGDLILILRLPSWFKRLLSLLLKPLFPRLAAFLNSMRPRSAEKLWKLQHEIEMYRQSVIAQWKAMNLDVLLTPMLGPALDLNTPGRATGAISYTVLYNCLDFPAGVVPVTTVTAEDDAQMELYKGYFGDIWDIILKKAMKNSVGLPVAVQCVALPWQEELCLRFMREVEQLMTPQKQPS
# protocolSummary: Inhibition of FAAH-mediated [3H]anandamide hydrolysis in rat brain homogenate assessed as [3H]ethanolamine production at 1 nM incubated for 60 mins prior to substrate addition measured after 10 mins by liquid scintillation counting analysis relative to control
# Assay type: tissue-based
inhibition listing for selected compounds.
Numbers only here, please. The scale is %.

Observe how each entry below is paired with its result.
testsmiles=O=C(NC1CCCC1)Oc1ccc(O)c(-c2ccccc2)c1 assayresult=15
testsmiles=CCCCCCNC(=O)Oc1cccc(C2=NCCO2)c1 assayresult=74
testsmiles=CN1CCC(NC(=O)Oc2cccc(-c3ccccc3)c2)CC1 assayresult=9
testsmiles=O=C(NC1CCCC1)Oc1cccc(C2=NCCO2)c1 assayresult=4
testsmiles=O=C(NC1CCCCC1)Oc1cccc(C2=NCCO2)c1 assayresult=31

**Q:** Entry under review: `O=C(NC1CCCCC1)Oc1ccc(O)c(-c2ccccc2)c1` . Reported inhibition?
**A:** 4

**Q:** Entry under review: `CCCCCCNC(=O)Oc1ccc(O)c(-c2ccccc2)c1` . Reported inhibition?
**A:** 44

**Q:** Entry under review: `CN1CCC(NC(=O)Oc2ccc(O)c(-c3ccccc3)c2)CC1` . Reported inhibition?
**A:** -0.5

**Q:** Entry under review: `CN1CCC(NC(=O)Oc2cccc(C3=NCCO3)c2)CC1` . Reported inhibition?
**A:** 12

**Q:** Entry under review: `O=C(NC1CCC1)Oc1ccc(O)c(-c2ccccc2)c1` . Reported inhibition?
**A:** 8
